Please go through the items and note down their inhibition at 1 µM.
target: UniProt:Q13315; assay: ATM kinase assay (HTRF, GST-cMyc-p53 substrate); assay type: biochemical; details: 0.5 h; C 1 μm (final concentration of compound); read-out: Inh (%) of ATM kinase
Sequence (Q13315 whole entry): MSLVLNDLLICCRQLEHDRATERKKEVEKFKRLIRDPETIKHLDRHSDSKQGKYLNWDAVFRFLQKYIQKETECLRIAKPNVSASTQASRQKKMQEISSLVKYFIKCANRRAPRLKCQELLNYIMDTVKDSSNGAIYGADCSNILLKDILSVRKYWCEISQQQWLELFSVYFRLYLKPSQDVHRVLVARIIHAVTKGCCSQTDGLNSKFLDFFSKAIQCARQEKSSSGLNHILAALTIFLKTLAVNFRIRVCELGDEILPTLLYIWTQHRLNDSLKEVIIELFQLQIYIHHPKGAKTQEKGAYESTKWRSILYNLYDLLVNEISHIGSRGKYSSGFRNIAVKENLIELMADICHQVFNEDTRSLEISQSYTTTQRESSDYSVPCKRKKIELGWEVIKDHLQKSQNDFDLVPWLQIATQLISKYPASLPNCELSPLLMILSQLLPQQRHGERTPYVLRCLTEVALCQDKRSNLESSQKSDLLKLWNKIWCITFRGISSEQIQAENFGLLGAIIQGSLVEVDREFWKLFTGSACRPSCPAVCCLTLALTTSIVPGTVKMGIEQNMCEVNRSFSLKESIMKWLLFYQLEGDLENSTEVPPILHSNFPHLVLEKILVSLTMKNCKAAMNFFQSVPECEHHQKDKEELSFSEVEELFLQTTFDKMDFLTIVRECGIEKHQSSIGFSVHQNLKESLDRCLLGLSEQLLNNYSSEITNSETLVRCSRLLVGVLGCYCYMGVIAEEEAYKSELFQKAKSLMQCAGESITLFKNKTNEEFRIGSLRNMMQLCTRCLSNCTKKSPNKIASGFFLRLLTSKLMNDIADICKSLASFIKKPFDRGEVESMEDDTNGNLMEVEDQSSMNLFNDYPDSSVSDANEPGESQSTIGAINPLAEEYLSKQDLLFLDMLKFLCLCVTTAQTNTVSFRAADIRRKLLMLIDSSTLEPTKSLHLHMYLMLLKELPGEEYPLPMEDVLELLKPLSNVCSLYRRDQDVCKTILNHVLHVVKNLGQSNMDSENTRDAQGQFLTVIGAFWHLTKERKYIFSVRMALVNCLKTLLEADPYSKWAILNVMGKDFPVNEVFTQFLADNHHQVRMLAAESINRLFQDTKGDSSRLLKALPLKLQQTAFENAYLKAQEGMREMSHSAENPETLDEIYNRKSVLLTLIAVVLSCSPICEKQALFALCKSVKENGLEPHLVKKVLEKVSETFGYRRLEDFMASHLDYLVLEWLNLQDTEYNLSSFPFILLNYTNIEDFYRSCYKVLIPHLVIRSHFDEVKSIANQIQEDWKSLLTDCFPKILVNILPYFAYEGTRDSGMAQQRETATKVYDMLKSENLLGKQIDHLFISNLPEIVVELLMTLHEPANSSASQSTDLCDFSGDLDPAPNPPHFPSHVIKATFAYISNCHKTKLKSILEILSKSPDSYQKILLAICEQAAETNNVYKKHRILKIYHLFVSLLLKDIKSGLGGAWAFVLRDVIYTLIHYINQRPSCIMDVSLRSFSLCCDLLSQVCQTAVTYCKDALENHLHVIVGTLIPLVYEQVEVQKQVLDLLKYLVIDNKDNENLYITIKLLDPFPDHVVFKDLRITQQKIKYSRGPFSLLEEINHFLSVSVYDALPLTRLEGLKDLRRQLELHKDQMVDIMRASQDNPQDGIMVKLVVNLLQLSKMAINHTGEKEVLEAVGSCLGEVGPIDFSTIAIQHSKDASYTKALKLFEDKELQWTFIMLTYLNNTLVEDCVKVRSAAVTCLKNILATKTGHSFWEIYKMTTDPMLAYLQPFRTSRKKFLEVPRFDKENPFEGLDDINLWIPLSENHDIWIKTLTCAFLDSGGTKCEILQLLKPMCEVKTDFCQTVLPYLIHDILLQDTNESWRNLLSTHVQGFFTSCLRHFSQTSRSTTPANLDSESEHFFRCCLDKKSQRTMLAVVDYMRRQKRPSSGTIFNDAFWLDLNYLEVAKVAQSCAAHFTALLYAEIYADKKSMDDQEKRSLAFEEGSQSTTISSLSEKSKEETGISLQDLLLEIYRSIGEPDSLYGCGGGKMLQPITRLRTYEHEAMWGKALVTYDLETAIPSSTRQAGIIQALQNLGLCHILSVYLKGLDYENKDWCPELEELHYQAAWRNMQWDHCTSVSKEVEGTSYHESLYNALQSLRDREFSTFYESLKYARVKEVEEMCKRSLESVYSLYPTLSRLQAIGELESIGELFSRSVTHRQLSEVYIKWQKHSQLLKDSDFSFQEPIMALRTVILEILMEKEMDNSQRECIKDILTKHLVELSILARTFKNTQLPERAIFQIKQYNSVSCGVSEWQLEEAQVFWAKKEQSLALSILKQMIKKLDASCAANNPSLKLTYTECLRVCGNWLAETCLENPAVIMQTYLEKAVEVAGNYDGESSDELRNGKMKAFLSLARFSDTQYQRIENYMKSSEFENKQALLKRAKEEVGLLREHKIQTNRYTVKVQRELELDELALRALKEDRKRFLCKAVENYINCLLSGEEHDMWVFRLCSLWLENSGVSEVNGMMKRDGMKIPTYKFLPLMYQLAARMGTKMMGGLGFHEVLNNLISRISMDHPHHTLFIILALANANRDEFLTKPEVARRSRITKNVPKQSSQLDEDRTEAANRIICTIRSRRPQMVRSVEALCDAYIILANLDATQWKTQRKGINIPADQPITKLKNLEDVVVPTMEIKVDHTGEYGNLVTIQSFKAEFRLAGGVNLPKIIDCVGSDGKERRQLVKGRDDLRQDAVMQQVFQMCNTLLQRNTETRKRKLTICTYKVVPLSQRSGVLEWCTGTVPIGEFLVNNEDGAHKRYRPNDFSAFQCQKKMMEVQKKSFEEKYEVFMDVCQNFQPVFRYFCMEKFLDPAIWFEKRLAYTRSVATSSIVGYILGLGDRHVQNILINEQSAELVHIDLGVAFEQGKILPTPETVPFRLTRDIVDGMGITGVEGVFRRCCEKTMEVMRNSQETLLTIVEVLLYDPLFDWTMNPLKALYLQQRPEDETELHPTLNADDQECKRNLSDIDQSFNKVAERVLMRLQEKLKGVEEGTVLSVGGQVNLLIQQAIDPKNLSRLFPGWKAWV
One number for each entry, in %.

CN(C)CCCOc1cnc(-c2ccc3ncc4nnc(C5CCOCC5)n4c3c2)nc1 [Example 7]    40
C[C@@H]1CN(c2nnc3cnc4ccc(-c5ccc(OCCCN(C)C)cc5)cc4n23)C[C@H](C)N1C [Example 23]    100
CN(C)CCCN(C)c1ccc(-c2ccc3ncc4nnc(C5CCOCC5)n4c3c2)cc1 [Example 11]    64

Batch request: inhibition at 1 µM per item, same order as input.
1. CN(C)CCCOc1ncc(-c2ccc3ncc4nnc(C5CCOCC5)n4c3c2)cn1 [Example 6]
2. C[C@@H]1CN(c2nnc3cnc4ccc(-c5ccc(N6CCC(N(C)C)CC6)cc5)cc4n23)C[C@H](C)N1C [Example 58]
3. CN(C)CCCOc1ccc(-c2cnc3ncc4nnc(C5CCOCC5)n4c3c2)cc1 [Example 2]
4. CN(C)CCCOc1ccc(-c2cc3c(cn2)ncc2nnc(C4CCOCC4)n23)cc1 [Example 30]
5. Cc1cc(N2CCC(N(C)C)CC2)ccc1-c1ccc2ncc3nnc(C4CCOCC4)n3c2c1 [Example 50]
6. Cc1cc(-c2ccc3ncc4nnc(C5CCOCC5)n4c3c2)ccc1N1CCC(N(C)C)CC1 [Example 46]

Output line:
1: 57; 2: 100; 3: 57; 4: 14; 5: 80; 6: 100
